These entries and their values trace back to paper PMC6222787.

Overview of recorded viability at 24 h, 50 µM for various compounds
Assay: MTT assay for cell viability
Conditions: mouse, N9 microglial cells, % Cell Viability, 50 μM compound, 24 h, MTT; mean ± S.E.M.
METRIC: viability at 24 h, 50 µM (%)

compound="C=CC(C=Cc1ccc(O)cc1)c1ccc(O)cc1 (stereo not drawn) [Compound 23, trans-Hinokiresinol]" metric="viability at 24 h, 50 µM" value=98.3
compound="CC(CCC1(O)OC2CC3C4CCC5CC(OC6OC(CO)C(OC7OC(CO)C(O)C(OC8OCC(O)C(O)C8O)C7OC7OC(CO)C(O)C(O)C7O)C(O)C6O)C(O)CC5(C)C4CCC3(C)C2C1C)COC1OC(CO)C(O)C(O)C1O (stereo not shown) [Compound 7, Hostaplantagineoside C]" metric="viability at 24 h, 50 µM" value=79.7
compound=Nc1ncnc2c1ncn2[C@@H]1O[C@H](CO)[C@@H](O)[C@H]1O metric="viability at 24 h, 50 µM" value=80.5
compound=O=c1cc(-c2ccc(O)cc2)oc2cc(O)c([C@@H]3O[C@H](CO)[C@@H](O)[C@H](O)[C@H]3O)c(O)c12 metric="viability at 24 h, 50 µM" value=95.7
compound=O=c1cc(-c2ccc(O)cc2)oc2c([C@@H]3O[C@H](CO)[C@@H](O)[C@H](O)[C@H]3O)c(O)cc(O)c12 metric="viability at 24 h, 50 µM" value=81.8
compound="C[C@@H]1O[C@@H](O[C@H]2[C@H](OC(=O)[C@]34CCC(C)(C)C[C@H]3C3=CC[C@@H]5[C@@]6(C)C[C@H](O)[C@H](O[C@@H]7O[C@H](CO)[C@@H](O)[C@H](O[C@@H]8O[C@H](CO)[C@@H](O)[C@H](O)[C@H]8O)[C@H]7O)C(CO)(CO)[C@@H]6CC[C@@]5(C)[C@]3(C)C[C@H]4O)OC[C@H](O)[C@@H]2O)[C@H](O)[C@H](O)[C@H]1O[C@@H]1OC[C@@H](O)[C@H](O[C@@H]2OC[C@](O)(CO)[C@H]2O)[C@H]1O [Compound 16, Platycodin D2]" metric="viability at 24 h, 50 µM" value=101
compound="C=CCOC1O[C@H](CO)[C@@H](O)[C@H](O)[C@H]1O (stereo in doubt)" metric="viability at 24 h, 50 µM" value=105
compound="CC(CCC1(O)OC2CC3C4CCC5CC(OC6OC(CO)C(O)C(O)C6OC6OC(CO)C(O)C(O)C6O)CCC5(C)C4CCC3(C)C2C1C)COC1OC(CO)C(O)C(O)C1O (stereo not shown) [Compound 6, Anemarnoside B]" metric="viability at 24 h, 50 µM" value=104
compound="COc1ccc(C(=O)c2ccc(O)cc2)c(OC2OC(CO)C(O)C(O)C2O)c1O (stereo not shown) [Compound 2, Zimoside A]" metric="viability at 24 h, 50 µM" value=94.6
compound="COc1cc(O)c(C(=O)c2ccc(O)cc2)c(O)c1 [Compound 1, 2,6,4′-trihydroxy-4-methoxybenzophenone]" metric="viability at 24 h, 50 µM" value=97.5

----------
Tested on: N9 microglial cells
Settings: mouse, 24 h, 50 µM
METRIC: % Cell Viability (%)

compound="CC(C)CCC1(O)OC2C(O)C3C4CCC5CC(OC6OC(CO)C(O)C(O)C6OC6OC(CO)C(O)C(O)C6O)CCC5(C)C4CCC3(C)C2C1C (centres unmarked) [Compound 4, Anemarrhenasaponin II]" metric="% Cell Viability" value=8.57
compound="CC1=C(CCC(C)COC2OC(CO)C(O)C(O)C2O)OC2CC3C4CCC5CC(OC6OC(CO)C(O)C(O)C6OC6OC(CO)C(O)C(O)C6O)CCC5(C)C4CCC3(C)C12 (centres unmarked) [Compound 11, Timosaponin BIII]" metric="% Cell Viability" value=74.93
compound="CC1=C(CCC(C)COC2OC(CO)C(O)C(O)C2O)OC2CC3C4CCC5CC(OC6OC(CO)C(O)C(O)C6OC6OC(CO)C(O)C(O)C6O)CCC5(C)C4CCC3(C)C12 (centres unmarked) [Compound 12, Macrostemonoside F]" metric="% Cell Viability" value=105.77
compound="CC(C)CCC1(O)OC2C(O)C3C4CCC5CC(OC6OC(CO)C(O)C(O)C6OC6OC(CO)C(O)C(O)C6O)CCC5(C)C4CCC3(C)C2C1C (centres unmarked) [Compound 5, Anemarrhenasaponin I]" metric="% Cell Viability" value=115.47
compound="CC1=C(CCC(C)COC2OC(CO)C(O)C(O)C2O)OC2CC3C4CCC5CC(OC6OC(CO)C(O)C(O)C6OC6OC(CO)C(O)C(O)C6O)CCC5(C)C4CCC3(C)C12 (centres unmarked) [Compound 13, Timosaponin C]" metric="% Cell Viability" value=97.19

----------
Overview of recorded viability at 24 h, 25 µM for various compounds
Experiment: MTT assay for cell viability
Conditions: mouse, N9 microglial cells, % Cell Viability, 25 μM compound, 24 h, MTT; mean ± S.E.M.
METRIC: viability at 24 h, 25 µM (%)

compound="C=CCOC1O[C@H](CO)[C@@H](O)[C@H](O)[C@H]1O (stereo in doubt)" metric="viability at 24 h, 25 µM" value=107
compound=C[C@@H]1O[C@@H](O[C@H]2[C@H](OC(=O)[C@]34CCC(C)(C)C[C@H]3C3=CC[C@@H]5[C@@]6(C)C[C@H](O)[C@H](O[C@@H]7O[C@H](CO)[C@@H](O)[C@H](O)[C@H]7O)C(CO)(CO)[C@@H]6CC[C@@]5(C)[C@]3(C)C[C@H]4O)OC[C@H](O)[C@@H]2O)[C@H](O)[C@H](O)[C@H]1O[C@@H]1OC[C@@H](O)[C@H](O[C@@H]2OC[C@](O)(CO)[C@H]2O)[C@H]1O metric="viability at 24 h, 25 µM" value=40.2

----------
Test system: N9 microglial cells
Conditions: mouse, 24 h, 25 µM
METRIC: % Cell Viability

compound="CC1=C(CCC(C)COC2OC(CO)C(O)C(O)C2O)OC2CC3C4CCC5CC(OC6OC(CO)C(O)C(O)C6OC6OC(CO)C(O)C(O)C6O)CCC5(C)C4CCC3(C)C12 (stereo not shown) [Compound 12, Macrostemonoside F]" value="104.74 ± 3.16%"
compound="CC1=C(CCC(C)COC2OC(CO)C(O)C(O)C2O)OC2CC3C4CCC5CC(OC6OC(CO)C(O)C(O)C6OC6OC(CO)C(O)C(O)C6O)CCC5(C)C4CCC3(C)C12 (stereo not shown) [Compound 13, Timosaponin C]" value="109.04 ± 4.85%"
compound="CC(C)CCC1(O)OC2C(O)C3C4CCC5CC(OC6OC(CO)C(O)C(O)C6OC6OC(CO)C(O)C(O)C6O)CCC5(C)C4CCC3(C)C2C1C (stereo not shown) [Compound 5, Anemarrhenasaponin I]" value="110.42 ± 4.67%"
compound="CC(C)CCC1(O)OC2C(O)C3C4CCC5CC(OC6OC(CO)C(O)C(O)C6OC6OC(CO)C(O)C(O)C6O)CCC5(C)C4CCC3(C)C2C1C (stereo not shown) [Compound 4, Anemarrhenasaponin II]" value="63.92 ± 5.98 %"

----------
Assay: MTT assay for cell viability
Conditions: mouse, N9 microglial cells, % Cell Viability, 50 μM compound, 24 h, MTT; mean ± S.E.M.
METRIC: viability at 24 h, 50 µM (%)

compound=C[C@@H]1O[C@@H](O[C@H]2[C@H](OC(=O)[C@]34CCC(C)(C)C[C@H]3C3=CC[C@@H]5[C@@]6(C)C[C@H](O)[C@H](O[C@@H]7O[C@H](CO)[C@@H](O)[C@H](O)[C@H]7O)C(CO)(CO)[C@@H]6CC[C@@]5(C)[C@]3(C)C[C@H]4O)OC[C@H](O)[C@@H]2O)[C@H](O)[C@H](O)[C@H]1O[C@@H]1OC[C@@H](O)[C@H](O[C@@H]2OC[C@](O)(CO)[C@H]2O)[C@H]1O value=17.9
compound="C[C@@H]1O[C@@H](O[C@H]2[C@H](OC(=O)[C@]34CCC(C)(C)C[C@H]3C3=CC[C@@H]5[C@@]6(C)C[C@H](O)[C@H](O[C@@H]7O[C@H](CO)[C@@H](O)[C@H](O[C@@H]8O[C@H](CO)[C@@H](O)[C@H](O)[C@H]8O)[C@H]7O)[C@@](C)(CO)[C@@H]6CC[C@@]5(C)[C@]3(C)C[C@H]4O)OC[C@H](O)[C@@H]2O)[C@H](O)[C@H](O)[C@H]1O[C@@H]1OC[C@@H](O)[C@H](O[C@@H]2OC[C@](O)(CO)[C@H]2O)[C@H]1O [Compound 17, Polygalacin D2]" value=88
compound=N[C@@H](Cc1c[nH]c2ccccc12)C(=O)O value=92.4
compound=O=C(c1ccc(O)cc1)c1c(O)cc(O)cc1O value=113

----------
Overview of recorded viability at 24 h, 25 µM for various compounds
Experiment: MTT assay for cell viability
Details: mouse, N9 microglial cells, % Cell Viability, 25 μM compound, 24 h, MTT; mean ± S.E.M.
METRIC: viability at 24 h, 25 µM (%)

compound="C[C@@H]1O[C@@H](O[C@H]2[C@H](OC(=O)[C@]34CCC(C)(C)C[C@H]3C3=CC[C@@H]5[C@@]6(C)C[C@H](O)[C@H](O[C@@H]7O[C@H](CO)[C@@H](O)[C@H](O[C@@H]8O[C@H](CO)[C@@H](O)[C@H](O)[C@H]8O)[C@H]7O)C(CO)(CO)[C@@H]6CC[C@@]5(C)[C@]3(C)C[C@H]4O)OC[C@H](O)[C@@H]2O)[C@H](O)[C@H](O)[C@H]1O[C@@H]1OC[C@@H](O)[C@H](O[C@@H]2OC[C@](O)(CO)[C@H]2O)[C@H]1O [Compound 16, Platycodin D2]" value=114
compound="C=CC(C=Cc1ccc(O)cc1)c1ccc(O)cc1 (stereo not drawn) [Compound 23, trans-Hinokiresinol]" value=108
compound=Nc1ncnc2c1ncn2[C@@H]1O[C@H](CO)[C@@H](O)[C@H]1O value=81.6
compound="CC(CCC1(O)OC2CC3C4CCC5CC(OC6OC(CO)C(OC7OC(CO)C(O)C(OC8OCC(O)C(O)C8O)C7OC7OC(CO)C(O)C(O)C7O)C(O)C6O)C(O)CC5(C)C4CCC3(C)C2C1C)COC1OC(CO)C(O)C(O)C1O (stereo not shown) [Compound 7, Hostaplantagineoside C]" value=84.9
